Target: CAMK1G (1-320) (Homo sapiens, UniProt Q96NX5)
Construct: made in house; host or cells: E. coli BL21 (DE3) pLysS
Sequence (Q96NX5 1-320): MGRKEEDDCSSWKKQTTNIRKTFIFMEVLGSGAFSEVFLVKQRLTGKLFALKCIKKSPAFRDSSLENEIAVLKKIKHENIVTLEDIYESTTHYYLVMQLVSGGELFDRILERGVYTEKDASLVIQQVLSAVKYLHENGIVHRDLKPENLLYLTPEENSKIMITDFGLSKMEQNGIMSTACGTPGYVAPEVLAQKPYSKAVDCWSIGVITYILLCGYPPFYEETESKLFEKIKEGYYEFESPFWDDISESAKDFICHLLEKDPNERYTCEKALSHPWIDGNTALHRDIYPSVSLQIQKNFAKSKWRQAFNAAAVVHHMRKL
Assay: STD-NMR fragment screening, CAMK1G
Assay type: binding
Details: 1 = hit, 0 = no hit
Description: All fragments were stored at −20°C as solids in argon flushed glass bottles. For NMR screening, fragments were weighed and dissolved in DMSO-d6 to a stock concentration of 300 mM. Mother plates were prepared with a 100 mM concentration. […] Fifteen of these compounds contain the same halogen twice. […] As fragment mixtures can lead to competitive effects between their fragments, it is not advised to use the quantification of peak mixtures for hit ranking.
Item-by-item account of CAMK1G (STD-NMR hit flag)
Field format: numeric only.

Measured CAMK1G (STD-NMR hit flag), O=C(O)C(O)c1ccccc1Cl (centres unmarked) : 0

# CAMK1G (STD-NMR hit flag) (compound: O=C(O)c1cnc(Cl)cn1 ) is 0
